// data source = the Human Domainome abundance scans (Beltran et al. 2025)

Would you mind telling me the reported abundance fitness of each entry?
B1: POU domain, class 2, transcription factor 1, residues 285 to 354; numbered along this chain, P14859 (parent)
chain: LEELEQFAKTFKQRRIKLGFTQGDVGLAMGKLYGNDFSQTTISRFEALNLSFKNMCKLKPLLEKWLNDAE

# Variants of: B1
# METHOD NOTES: abundance fitness (aPCA) (normalised: wild type 0, dead -1); higher = more abundant; growth selection in yeast, the domain comes from the species named
# CONDITION CONTEXT: Homo sapiens
One number for each entry.

# SEQUENCE CHANGE, EXPERIMENTAL VALUE
measured = [
    ("N35Q", 0),
    ("K53A", 0.049),
]

Fill in abundance fitness for each of the 6 variants listed.
1. E3W
2. L66C
3. K59H
4. R44W
5. E5A
6. T40K

1: -0.305; 2: -0.071; 3: -0.014; 4: -0.253; 5: -0.022; 6: -0.071
